These measurements were taken from BindingDB's records for doi:10.1016/j.bmc.2018.03.016.

Listing of entries alongside the reported IC50.
procedure-details: Modulation of human wild-type APP695 expressed in SH-SY5Y cells assessed as inhibition of amyloid beta (1 to 42 residues) production measured after 24 hrs by ELISA
endpoint-label: IC50 (µM)

structure_notation=O=C(NCCN1CCCCC1)c1cc(Nc2ccccc2CN2CCCCC2)cc(C(=O)NCCN2CCCCC2)c1 unit_label=µM prefix_operator== result_number=4.7
structure_notation=CCN(CC)Cc1cc(NC(=O)CN2CCCCC2)cc(Nc2ccnc3cc(Cl)ccc23)c1 unit_label=µM prefix_operator== result_number=2.8
structure_notation=CCN(CC)Cc1cccc(Nc2ccnc3cc(Cl)ccc23)c1 unit_label=µM prefix_operator== result_number=10.4
structure_notation=CCN(CC)CCC[C@@H](C)Nc1ccnc2cc(Cl)ccc12 unit_label=µM prefix_operator== result_number=12.8
structure_notation=CN(C)CCN(C)Cc1cc(NC(=O)CN2CCCCC2)cc(Nc2ccnc3cc(Cl)ccc23)c1 unit_label=µM prefix_operator== result_number=2.9
structure_notation=CCN(CC)Cc1cc(Nc2ccnc3cc(Cl)ccc23)ccc1O unit_label=µM prefix_operator== result_number=5.4
structure_notation=CN1CCN(c2cc(Nc3ccnc4cc(Cl)ccc34)cc(N3CCN(C)CC3)c2)CC1 unit_label=µM prefix_operator== result_number=1.9
structure_notation=CN(C)Cc1ccccc1Nc1cc(C(=O)NCCN2CCCCC2)cc(C(=O)NCCN2CCCCC2)c1 unit_label=µM prefix_operator=> result_number=10
structure_notation=O=C(CN1CCCCC1)Nc1cc(CN2CCOCC2)cc(Nc2ccnc3cc(Cl)ccc23)c1 unit_label=µM prefix_operator== result_number=7.1
structure_notation=c1ccc(Nc2cc(CNCCN3CCCCC3)cc(CNCCN3CCCCC3)c2)c(CN2CCOCC2)c1 unit_label=µM prefix_operator== result_number=7.9

* * *

procedure-details: Modulation of human wild-type APP695 expressed in SH-SY5Y cells assessed as inhibition of amyloid beta (1 to 42 residues) production measured after 24 hrs by ELISA
pIC50: −log10 of the molar value.
Listing of entries alongside the reported pIC50.
endpoint-label: pIC50

structure_notation=c1ccc(Nc2cc(CNCCN3CCCCC3)cc(CNCCN3CCCCC3)c2)c(CN2CCCCC2)c1 result_number=5.22
structure_notation=CCN(CC)Cc1cc(NCCN2CCCCC2)cc(Nc2ccnc3cc(Cl)ccc23)c1 result_number=4.86
structure_notation=Clc1ccc2c(Nc3cc(CN4CCOCC4)cc(NCCN4CCCCC4)c3)ccnc2c1 result_number=5.31
structure_notation=O=C(NCCN1CCCCC1)c1cc(C(=O)NCCN2CCCCC2)cc(-c2ccccc2CN2CCCCC2)c1 result_number=5.03
structure_notation=Oc1c(CN2CCCC2)cc(Nc2ccnc3cc(Cl)ccc23)cc1CN1CCCC1 result_number=4.95
